# tested-on: Cytochrome P450 3A4 (Homo sapiens)
# experiment-notes: Cytochrome panel assay with activity outcomes
# condition-details: recombinant CYP, pro-luciferin dealkylation, luminescence, p450-cyp3a4; series mostly up to 57.1 µM
Out of some 16,000 compounds screened, about 5,100 (32%) were called active. Another 25% or so got no clear call; they are omitted. The list shows a part of the results.
Recorded AC50 by entry

query-smiles: COC(=O)[C@@]1(Cc2ccccc2)[C@@H]2C(=CC(=O)[C@H]2CC(=O)C(=O)N(C)C)CN1C(=O)c1ccccc1
tested-on: Cytochrome P450 3A4 (Homo sapiens)
AC50: 7.94 µM (active)
//
query-smiles: CCCNC(=O)OC[C@@H]1O[C@H](CCO/N=C(\C)CCC(=O)OC[C@@H]2O[C@H](c3ccccc3)C=C[C@@H]2Oc2ccc(OC)cc2)C=C[C@@H]1Oc1ccc(OC)cc1
tested-on: Cytochrome P450 3A4 (Homo sapiens)
AC50: 5.01 µM (active)
//
query-smiles: COc1ccc(O[C@H]2C=C[C@@H](c3ccccc3)O[C@H]2CO/N=C\C[C@@H]2C=C[C@H](OC(C)=O)[C@H](COC(C)=O)O2)cc1
tested-on: Cytochrome P450 3A4 (Homo sapiens)
AC50: 3.98 µM (active)

====

# tested-on: Cytochrome P450 3A4 (Homo sapiens) (UniProt P08684)
# Sequence (P08684 whole entry, looked up): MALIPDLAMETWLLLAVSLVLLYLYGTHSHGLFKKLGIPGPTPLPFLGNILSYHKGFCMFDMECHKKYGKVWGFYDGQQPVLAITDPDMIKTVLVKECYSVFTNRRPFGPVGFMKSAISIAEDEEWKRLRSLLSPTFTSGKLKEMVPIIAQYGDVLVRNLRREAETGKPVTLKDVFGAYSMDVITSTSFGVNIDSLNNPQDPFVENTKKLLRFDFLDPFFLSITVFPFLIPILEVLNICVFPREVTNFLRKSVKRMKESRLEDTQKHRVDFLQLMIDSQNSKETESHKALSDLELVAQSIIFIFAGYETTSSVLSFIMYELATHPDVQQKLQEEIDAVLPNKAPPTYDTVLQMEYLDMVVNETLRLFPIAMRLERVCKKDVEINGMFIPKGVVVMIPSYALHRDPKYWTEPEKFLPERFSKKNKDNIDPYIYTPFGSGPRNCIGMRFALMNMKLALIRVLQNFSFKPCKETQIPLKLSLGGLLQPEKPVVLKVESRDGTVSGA
# experiment-notes: Cytochrome panel assay with activity outcomes
# condition-details: recombinant CYP, pro-luciferin dealkylation, luminescence, p450-cyp3a4; series mostly up to 57.1 µM
In all, about 16,000 compounds went through this assay and about 5,100 (32%) were called active. Not shown: some 25% with an inconclusive outcome. Some of the results follow.
outcome-measure: AC50

molecule: CCN(CC)Cc1c(O)c(Cl)cc2c3c(c(=O)oc12)CCCC3
observed-value: inactive

molecule: CC(C/C=N/NC(=O)COc1cc(Cl)ccc1Cl)c1ccccc1 (stereo not drawn)
observed-value: 14.1 µM (active)

molecule: CC1=C(C(=O)NCCN2CCN(C)CC2)C2(CCC(C)CC2)OC1=O (stereo not drawn)
observed-value: inactive

molecule: CCc1c(C)c(C#N)c2nc3ccccc3n2c1N1CCN(c2cc(C)ccn2)CC1
observed-value: inactive

molecule: C[C@@H](/C=C\c1cccc(Oc2ccc(F)cc2)c1)N(O)C(N)=O
observed-value: 1 µM (active)

molecule: CC(C)(CNC(=O)c1ccc([N+](=O)[O-])c(Cl)c1)CNC(=O)c1ccc([N+](=O)[O-])c(Cl)c1
observed-value: 8.91 µM (active)

molecule: OCCN=C1CCCc2c1[nH]c1ccc(Br)cc21
observed-value: inactive

molecule: C=C(CC1([C@@H](NP(=O)(c2ccccc2)c2ccccc2)[C@H]2C[C@@H]2CCCC)CC1)c1ccccc1
observed-value: 1.58 µM (active)

molecule: CCN(CC)CCCN(Cc1cc2ccc(C)c(C)c2[nH]c1=O)C(=O)NC1CCCCC1
observed-value: 2.82 µM (active)

molecule: COc1ccc(-n2c(CNc3ccc(C)cc3)nnc2SCC(=O)Nc2nc(-c3ccccc3)cs2)cc1
observed-value: 3.16 µM (active)

molecule: CCC(=O)NC(=S)Nc1ccc(NC(=O)COc2ccc(Cl)cc2Cl)cc1
observed-value: 12.6 µM (active)

molecule: CC(=O)N1CCC2(CC1)CCN(c1ccccn1)CC2
observed-value: inactive

molecule: Cn1c(=O)c(-c2cccs2)nc2cnc(Oc3ccccc3)nc21
observed-value: inactive

molecule: C[C@H](C(=O)O)c1cccc(Oc2ccccc2)c1
observed-value: inactive

molecule: NC/C=C\C(=O)O
observed-value: inactive

molecule: CC(=O)Nc1ccc(S(=O)(=O)N2CCC(N(C)CCC(C)C)CC2)cc1
observed-value: inactive

molecule: Cc1ccc(-c2n[nH]c(=S)n2/N=C/c2cccn2C)cc1
observed-value: 12.6 µM (active)

molecule: COc1cc(COc2cc(N)c(Cl)cc2C(=O)CCC2CCN(CCNS(C)(=O)=O)CC2)cc(OC)c1
observed-value: 2 µM (active)

molecule: CN1CCCN(C2C3CC4CC(C3)CC2C4)CC1 (stereo not drawn)
observed-value: inactive

molecule: CCC/C=C(\CCC)C(NS(=O)(=O)c1cccc2cccnc12)c1ccc(-c2ccccc2)cc1 (stereo not drawn)
observed-value: 3.16 µM (active)

molecule: O=C1CC[C@H](N2C(=O)c3ccccc3C2=O)C(=O)N1
observed-value: inactive

molecule: Cc1nc(NS(=O)(=O)c2ccccc2C)c2c3c(sc2n1)CCC3
observed-value: 8.91 µM (active)

molecule: C=C(CC1([C@@H](NP(=O)(c2ccccc2)c2ccccc2)[C@H]2C[C@@H]2CCN(C(=O)OCC)S(=O)(=O)c2ccc(C)cc2)CC1)c1ccccc1
observed-value: 1.58 µM (active)

molecule: CC(C)c1ccc(OCc2ccc(C(=O)N3CCN(c4ccccn4)CC3)cc2)cc1
observed-value: inactive

molecule: O=C(C1CCN(S(=O)(=O)N2CCOCC2)CC1)N1CCN(c2ccccc2)CC1
observed-value: inactive

molecule: CC(C)c1cc(C(F)(F)F)nc(NNc2nc(C(C)C)cc(C(F)(F)F)n2)n1
observed-value: 3.16 µM (active)

molecule: Cc1o[nH]c(=O)c1CC[C@H](N)C(=O)O
observed-value: inactive

molecule: CCOc1cc(C#N)c(NC(=O)c2cccnc2)cc1OCC
observed-value: 12.6 µM (active)

molecule: COC(=O)C1=C(C)NC2=C(C(=O)CCC2)C1c1cn(Cc2ccc(Cl)cc2Cl)nc1-c1ccccc1 (stereo not drawn)
observed-value: 2.51 µM (active)

molecule: NCCNC(=O)c1ccc(Cl)cc1
observed-value: inactive

molecule: COc1ccc2cc(C)c3nnc(SCC(=O)Nc4nc(-c5ccccc5)cs4)n3c2c1
observed-value: 2.24 µM (active)

molecule: Cc1cc2c(cc1C)NC1=C(N2)O[C@H](c2c[nH]c3ccc(COc4ccccc4)cc23)C1=O
observed-value: 3.98 µM (active)

molecule: Cn1c(=O)c2[nH]cnc2n(C)c1=O
observed-value: inactive
